The following compounds are listed with their measured TGI values.
- Tested on: NCI/ADR-RES ovarian
- protocol-description: NCI tumour cell line growth inhibition, 48 h

Below, each entry is followed by its recorded TGI result.
{"columns": ["compound", "value-measured"],
 "data": [
  ["O=C1CC(c2cccc(O)c2)C2(C(=O)NC(=S)NC2=O)C(c2cccc(O)c2)C1 (stereo unspecified)", "> 100 µM"],
  ["N#Cc1cccc(OCc2nc(N)nc(N)c2-c2ccc(Cl)c(Cl)c2)c1", "> 100 µM"]
]}

Qu. Tell me the measured TGI of N#Cc1ncc(-c2ccc(C(F)(F)F)cc2)c(NCc2cc(C(F)(F)F)cc(C(F)(F)F)c2)n1 , please.
Ans. 65.8 µM

Qu. What about Cn1c(-c2cccs2)cc(-c2ccccc2)c1-c1cccs1 ?
Ans. > 100 µM

Qu. Next compound: CO/C=C(/C(=O)OC)c1ccccc1[C@@H]1CC1c1cccc(F)c1 (stereo partly specified)
Ans. 91.8 µM

Qu. Try this compound next: O=C(Nc1ccccc1)c1nn(-c2cc(S(=O)(=O)O)c([N+](=O)[O-])cc2Cl)[n+](-c2cc(S(=O)(=O)[O-])c([N+](=O)[O-])cc2Cl)n1
Ans. > 100 µM

Qu. Next compound up: CCC[CH2][Sn]([CH2]CCC)([O]C(=O)c1cc(F)ccc1F)[O][Sn]([CH2]CCC)([CH2]CCC)[O]C(=O)c1cc(F)ccc1F
Ans. 1.88 µM

Qu. Now the same for COc1cc(-c2cc(=O)c3c(OC)c(OC)c(OC)cc3o2)c(OC)c(OC)c1OC
Ans. > 75 µM

Qu. Continue with CCN1C=C/C(=C\C=C/c2cc[n+](CC)c3ccccc23)c2ccccc21
Ans. > 100 µM

Qu. Would you mind doing Cc1cccc2cc3c(ccc4ccccc43)c[n+]12 as well?
Ans. > 100 µM

Qu. Entry to check: O=c1[nH]cnc2c1sc1nc3ccccc3n12
Ans. > 100 µM

Qu. Let us now turn to Cc1ccc(Cc2n[nH]c(=O)n2-c2ccccc2)cc1
Ans. > 100 µM

Qu. Now try S=c1nc(Cc2ccc(Cl)cc2)[nH][nH]1 .
Ans. > 100 µM

Qu. Note, next up: O=C(c1ccco1)N(Cc1ccco1)C(=S)Nc1ccccc1
Ans. 55.3 µM
